meta.source: patent US10517889B2

# maps each entry to its % inhibition of SMAD7 mRNA expression
Test system: human SMAD7 mRNA
assay-name: Dose-dependent inhibition of human SMAD7 mRNA expression in Hep3B cells, comparison with ION 28453 (Example 4)
Assay type: cell-based
details: electroporation, 6.67 μM, approximately 16 hours
Strand notation (5' to 3'): a small letter for the sugar, then the base; units joined by * are phosphorothioate-linked, units joined directly phosphodiester-linked; [ ] holds rarer units or linkages, { } end groups; capitals alone tell only the bases. k = constrained ethyl (cEt); [5mC] = 5-methylcytosine; d = 2'-deoxy (DNA)

substance	% inhibition of SMAD7 mRNA expression, %
801051 (antisense kG*kT*kG*dT*dT*d[5mC]*dA*dA*d[5mC]*dA*dA*dT*dG*k[5mC]*kT*kT) [compound 801051]	62
800821 (antisense kG*k[5mC]*kT*dA*dA*dA*dT*dT*dT*d[5mC]*d[5mC]*dA*dA*kT*kG*kA) [compound 800821]	58
798781 (CGTAAGATTCACAGCA; 3-10-3 cEt gapmer, further chemistry not given here) [compound 798781]	66
799184 (antisense kA*kA*k[5mC]*d[5mC]*dT*dT*dT*dG*dT*dA*dG*dT*dT*kA*kG*kA) [compound 799184]	51
801040 (antisense kG*kT*k[5mC]*dA*dT*dG*dA*dA*dA*dG*dA*dT*dT*k[5mC]*kT*kT) [compound 801040]	63

* * *

System: human SMAD7 mRNA
assay-name: Antisense inhibition of human SMAD7 mRNA expression in Hep3B cells by 3-10-3 cEt gapmers, 10,000 nM, electroporation (Example 2)
Assay type: cell-based
details: SMAD7 mRNA, Hep3B cells, electroporation with 10,000 nM antisense oligonucleotide, approximately 24 hours, primer probe set RTS5062, relative to untreated control cells
Strand notation (5' to 3'): a small letter for the sugar, then the base; units joined by * are phosphorothioate-linked, units joined directly phosphodiester-linked; [ ] holds rarer units or linkages, { } end groups; capitals alone tell only the bases. k = constrained ethyl (cEt); [5mC] = 5-methylcytosine; d = 2'-deoxy (DNA)
# maps each entry to its % Inhibition

substance	% Inhibition, %
830007 (antisense k[5mC]*kT*kA*d[5mC]*dT*d[5mC]*dA*d[5mC]*d[5mC]*dA*dG*dT*dT*kG*kG*kT) [compound 830007]	0
829871 (antisense kG*kT*k[5mC]*d[5mC]*dA*dG*dT*dG*dT*dG*dG*d[5mC]*dG*kG*kA*k[5mC]) [compound 829871]	1
829954 (kT*kT*kG*dT*d[5mC]*dA*d[5mC]*d[5mC]*d[5mC]*dG*dT*d[5mC]*dT*kG*kG*kG; antisense) [compound 829954]	53
829867 (antisense kT*kG*kT*dG*dG*d[5mC]*dG*dG*dA*d[5mC]*dT*dT*dG*kA*kT*kG) [compound 829867]	22
829990 (kG*kG*kG*d[5mC]*d[5mC]*dG*d[5mC]*dG*dA*dG*dG*d[5mC]*dG*kG*kT*kG; antisense) [compound 829990]	35
830012 (antisense kG*k[5mC]*k[5mC]*dA*dG*dT*d[5mC]*dT*d[5mC]*dA*dA*dA*dT*kG*kG*kG) [compound 830012]	37

* * *

# maps each entry to its % inhibition of SMAD7 mRNA expression
System: human SMAD7 mRNA
assay-name: Antisense inhibition of human SMAD7 mRNA expression in Hep3B cells by 3-10-3 cEt gapmers, 10,000 nM, electroporation (Example 2)
Type: cell-based
details: Hep3B cells, electroporation with 10,000 nM antisense oligonucleotide, approximately 24 hours, primer probe set RTS5062, relative to untreated control cells
Strand notation (5' to 3'): a small letter for the sugar, then the base; units joined by * are phosphorothioate-linked, units joined directly phosphodiester-linked; [ ] holds rarer units or linkages, { } end groups; capitals alone tell only the bases. k = constrained ethyl (cEt); [5mC] = 5-methylcytosine; d = 2'-deoxy (DNA)

substance	% inhibition of SMAD7 mRNA expression, %
799445 (antisense k[5mC]*k[5mC]*kT*dA*dA*dT*d[5mC]*dT*d[5mC]*dT*dT*dT*d[5mC]*kA*kT*k[5mC]) [compound 799445]	28
799379 (antisense kT*kT*kT*dG*dA*dT*dA*dG*dT*d[5mC]*d[5mC]*d[5mC]*dT*kA*kT*kG) [compound 799379]	0
798747 (antisense k[5mC]*kG*kG*d[5mC]*d[5mC]*dT*dG*dG*dA*dG*d[5mC]*dA*dG*k[5mC]*kA*kG) [compound 798747]	14
799083 (antisense kG*kG*kA*dA*dG*d[5mC]*d[5mC]*d[5mC]*dA*dT*d[5mC]*dT*d[5mC]*kA*kG*kG) [compound 799083]	0
799381 (antisense kA*kA*k[5mC]*dA*dG*dA*dT*d[5mC]*dT*dA*dT*d[5mC]*dT*k[5mC]*k[5mC]*kT) [compound 799381]	54
798708 (antisense k[5mC]*kG*k[5mC]*dT*d[5mC]*dG*dG*d[5mC]*dT*dG*dT*d[5mC]*d[5mC]*kG*kT*k[5mC]) [compound 798708]	45
798659 (k[5mC]*k[5mC]*k[5mC]*dA*d[5mC]*d[5mC]*d[5mC]*d[5mC]*dG*d[5mC]*dG*d[5mC]*dG*kG*k[5mC]*k[5mC]; antisense) [compound 798659]	58
799009 (kT*k[5mC]*k[5mC]*d[5mC]*d[5mC]*dA*dT*d[5mC]*dT*dG*d[5mC]*d[5mC]*dG*k[5mC]*kT*k[5mC]; antisense) [compound 799009]	62
798673 (antisense kG*kG*k[5mC]*d[5mC]*d[5mC]*dG*dG*dG*d[5mC]*dA*dG*dG*dA*kG*k[5mC]*kG) [compound 798673]	15
790461 (k[5mC]*k[5mC]*kG*dG*dG*d[5mC]*dA*dG*dG*dA*dG*d[5mC]*dG*kG*k[5mC]*kG; antisense) [compound 790461]	42
799377 (antisense kT*kT*kG*d[5mC]*dA*dG*dG*dT*dG*dA*d[5mC]*dT*dG*kG*kA*kG) [compound 799377]	15
798948 (antisense kG*k[5mC]*kG*dA*dA*dA*d[5mC]*dA*dA*dA*dA*d[5mC]*dA*kG*kA*kA) [compound 798948]	56
